B1: DYRK1B (parent)
chain: KKVLNHGYDDDNHDYIVRSGERWL

Variants of: B1
Assay: protein stability index of a GFP-peptide fusion (GPS, HEK-293T) (PSI 1-6); higher = more stable;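 further: lentivirally expressed fusions sorted by FACS into six bins by GFP to DsRed ratio, PSI derived from sequencing read proportions per bin multiplied by bin number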
Conditions: c terminus: a fixed tail appended
measurement.name: protein stability index
API doc: respond with a numeric literal and nothing else, no unit.

input: Read the entry LKVLNHGYDDDNHDYIVRSGERWL [K1L] and write its reported protein stability index.
output: 2.48

input: State its protein stability index: KKVLNHGYDDDNHDVIVRSGERWL [Y15V]
output: 3.38

input: Give protein stability index for the following variant: TKVLNHGYDDDNHDYIVRSGERWL [K1T]
output: 2.92

input: Tell me its protein stability index given KKVLNHGYDTDNHDYIVRSGERWL [D10T] as the entry.
output: 3

input: Give the value of protein stability index reported for the following: KKVPNHGYDDDNHDYIVRSGERWL [L4P]
output: 3.36

input: Hello, please tell me recorded protein stability index for this one: KKVLNHGYDDDNHDYIVWSGERWL [R18W]
output: 2.38

input: Dear colleague, please send me the reported protein stability index for KKVLNHGYDDDNHDYIVRSGEEWL [R22E] when you can.
output: 3.58

input: Respond only with protein stability index recorded for KKVLNHGYDDGNHDYIVRSGERWL [D11G]
output: 2.85

input: Give the reported protein stability index for this variant. KKVLNHGCDDDNHDYIVRSGERWL [Y8C]
output: 3.24

input: Please supply the value of reported protein stability index for the item SKVLNHGYDDDNHDYIVRSGERWL [K1S]
output: 3.23

input: Return the recorded protein stability index value; entry: KKVLNHGYDDDNHDYIVRSAERWL [G20A]
output: 2.73

input: Annotate the variant KKVLNHGYDDDNHDYIVRSFERWL [G20F] with its measured protein stability index.
output: 2.04

input: Name the recorded protein stability index of the variant listed here: KKVLNHGYDDDNHDYIFRSGERWL [V17F]
output: 2.74

input: Please look at this variant and report its protein stability index: KKVLGHGYDDDNHDYIVRSGERWL [N5G]
output: 3.42

input: Dear colleague, please send me the reported protein stability index for KKVLNYGYDDDNHDYIVRSGERWL [H6Y] when you can.
output: 3.12

input: Return protein stability index (reported value) for this variant: KKVLNHGYDDDNHDYIVRSGDRWL [E21D]
output: 2.86

input: Identify protein stability index associated with the variant KKVLNHGYMDDNHDYIVRSGERWL [D9M]
output: 2.83

input: Using known records, supply protein stability index for KKVLNHGYDDDNHDYIVRKGERWL [S19K]
output: 3.2

input: Output measured protein stability index for this item: KKVLNHGYDDDNHRYIVRSGERWL [D14R]
output: 2.86

input: Report protein stability index for KKVLNHGYDDDNHNYIVRSGERWL [D14N]
output: 3.12

input: Please indicate protein stability index recorded for KKVLNHGYDDDNHDTIVRSGERWL [Y15T]
output: 2.95

input: Look up and report measured protein stability index for this entry: KKVLNRGYDDDNHDYIVRSGERWL [H6R]
output: 2.91

Origin of measurements: the supplement of paper PMC10567573
